# Experimental System: T1, human CTLA-4 (amino acids M1-N223) on stably transfected VI-fibroblast cells (human, UniProt P16410 36-223)
# T1 construct: also called VI-fibroblast/hCTLA-4
# T1 sequence (P16410 36-223 limits assumed): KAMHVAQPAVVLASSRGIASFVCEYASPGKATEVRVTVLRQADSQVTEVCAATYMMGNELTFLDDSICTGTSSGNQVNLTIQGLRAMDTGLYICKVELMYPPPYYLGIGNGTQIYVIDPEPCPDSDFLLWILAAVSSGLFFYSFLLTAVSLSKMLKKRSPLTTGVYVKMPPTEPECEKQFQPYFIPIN
# Assay Procedure: ECL cell binding, VI-fibroblast/hCTLA-4 cells;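 note: antibodies bound to the cells on carbon electrode plates, detected via SULFO-TAG anti-IgG secondary (1 h, RT), electrochemiluminescence read as RLU over a concentration range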
Entries and their measured EC50 follow.
State the answer as a number, implicitly in nM.

# count of solved cases: 5
H2M20368N (antibody, mouse IgG2, V domains shown, hybridoma antibody, human variable domains, mouse IgG2 Fc (H2M)) VH: QVQLQESGPGLVRPSQTLSLTCTVSGGSISNGGYYWTWIRQNPGKGLEWIGYIYYIGTTYYNPSLESRLSLSVDTSKNQFSLKLTSVTAADTAVYYCARSSLAVSEAFDIWGQGTMVTVSS VL: DIQMTQSPSSLSASVGDRFTITCRASQSIGSFLSWYQQKPGKAPKLLIYAASSLQSGVPSRFSGSGSGTDFTLTISSLQPEDFATYYCQQSYNTPPITFGQGTRLEIK ... 0.26
H2M20379N (antibody, mouse IgG2, V domains shown, hybridoma antibody, human variable domains, mouse IgG2 Fc (H2M)) VH: QVQLVESGGGVVQPGRSLRLSCAASGITFSSYGMHWVRQAPGKGLEWVALTSYDGSKKYYSDSVKGRFTISRDNSKNTLYLQMNSLRPEDTAVYYCAKDKGGDDYYGMDVWGQGTTVTVSS VL: EIVLTQSPGTLSLSPGERATLSCRASQWISSSYLAWYQQKPGQAPRLLIYGAFSRAPGIPGRFSGSGSGTDFTLTISRLEPEDFAVYYCQQYGSSPYTFGQGTKLEIN ... 0.092
H2M20385N (antibody, mouse IgG2, V domains shown, hybridoma antibody, human variable domains, mouse IgG2 Fc (H2M)) VH: QVQLVQSGAEVKKPGASVKVSCKTSGYTFTNNGISWVRQVPGQGLEWMGWISPYNGNTKYAQKFQGRVTMTTDTSTTTVYMDVRSLRSDDTAVYFCARDGPITISYFGMDVWGQGTTVTVSS VL: DIQMTQSPSSLSASVGDRVTITCRASQSISTYLNWYQQKPGKAPKLLIYAASTLQSGVPSRFGGSGSGTDFTLTVSSLQPEDFATYYCQQSYSTPPITFGQGTRLEIN ... 5.5
H1H19312P (antibody, human IgG1, V domains shown) VH: QVQLQESGPGLVKPSETLSLTCTVSGGSISSYHWSWIRQPLGKGLEWIGYIYYSGSTNYNPSLKSRVTISVDTSKNQFSLKLSSVTAADTAVYYCARGGSSIWPFDYWGQGTLVTVSS VL: DIQMTQSPSTLSASVGDRVTITCRASQSISSWLAWYQQKSGKAPKLLISKASTLESGVPSRFSGSGSGTEFTLTISSLQPDDFATYYCQQYNIYSWTFGQGTKVEIK ... 0.7
H1M20370N (antibody, mouse IgG1, V domains shown, hybridoma antibody, human variable domains, mouse IgG1 Fc (H1M)) VH: QVQLHESGPGLVKPSQTLSLTCSVSGGSISNGGYYWSWIRQHPGQGLEWIGYIYYIGNTYYNPSLESRVTMSIDTSKNQFSLKLSSVTAADTAIYYCARQEFVPGAEYFLHWGQGILVTVSS VL: DIRMTQSPSSLSASVGDRVTITCRASQTVNTFLNWYQQKPGKAPKLLIFGASSLQSGVPSRFSGSGSGTDFTLTISGLQPEDFAIYYCQQSYSVPPITFGQGTRLEIE ... 0.22

Consider the additional binder presented here.
EC50 reading for H1H19269P (antibody, human IgG1, V domains shown) VH: EVQLVESGGGLVQPGGSLKLSCAASGFTFSGSAMHWVRQASGKGLEWVGRIRGKANSFATAYSASVKGRFTISRDDSKNTASLQMNSLRTEDTAVYFCTREDQQLVRPYYYHYGMDVWGQGTTVTVSS VL: DIQMTQSPSSLSASVGDRVTITCRTSQSITNYLNWYQQKPGKAPKLLIYATASLQSGVPSRFSGSGSETDFTLTISSLQPEDFATYYCQQSYSTPLTFGGGTKVEIK : 0.4
